# test_name: HS-72 PK in plasma, kidney and liver
# Assay type: in vivo, mice
# test_settings: mouse, plasma; IP 20 mg/Kg, n=3, SEM; read-out: T1/2 elimination from plasma (converted)

# molecule, half-life / min
data = [
    ("CCCn1c(NC(=O)[C@H]2CCCN(c3cnccn3)C2)nc2ccccc21 [HS-72]", 24),
]
